- procedure_summary: amyloid nucleation score (Sup35N fusion, yeast selection) (log enrichment); library NNK1; higher = more nucleation; inactive = no reads after selection;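 further: zero at mode of non-aggregating sequences after 7 days selection at 30°C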
The following ranges of amyloid nucleation score define the classes used here: bottom = under -0.2, middle = from -0.2 up to 0.5, top = 0.5 and over

[[record]]
substance = "RYCVHIWRCDSLNHHN"
class = "middle"

[[record]]
substance = "IVFFWMMLVGLNRLGVNRVG"
class = "bottom"

[[record]]
substance = "CVPSVRNSVMW"
class = "middle"

[[record]]
substance = "LSPGYSHTN"
class = "bottom"

[[record]]
substance = "LSRDHCKNLNLNP"
class = "middle"

[[record]]
substance = "YKTEHNRSIDLLGISSSSFL"
class = "bottom"

[[record]]
substance = "VNNRRRVSVHDLRDATPGTF"
class = "middle"

[[record]]
substance = "FGYRMAYGSHVFVHSYRTEP"
class = "top"

[[record]]
substance = "LRTCIVGKLNQTTEILCGSS"
class = "top"

[[record]]
substance = "TFVYVKASLSSTIAASYVAQ"
class = "top"

[[record]]
substance = "GKFLRGGHLVFRWATLYLSV"
class = "bottom"

[[record]]
substance = "SKDCNKWVRPRHGLYRFGGF"
class = "middle"

[[record]]
substance = "WFAVWRIRCVRSDVANWMLS"
class = "middle"

[[record]]
substance = "ALDVARDKDVILYEFQLELR"
class = "middle"

[[record]]
substance = "HKTSKMLCLSI"
class = "middle"

[[record]]
substance = "KMTCSPSH"
class = "top"

[[record]]
substance = "CSLSETFPKVYFMWTQRSYV"
class = "bottom"

[[record]]
substance = "CLMIKMHSILIDVIYLHTRV"
class = "bottom"

[[record]]
substance = "MLNAIRSVGMSTHRSSEGG"
class = "bottom"

[[record]]
substance = "DIIWMFWRIINSPFFTQSVV"
class = "middle"

[[record]]
substance = "ILMILNLRTTSPWDWNWVSV"
class = "middle"

[[record]]
substance = "LQTIYFLYE"
class = "top"

[[record]]
substance = "ICFFGLDVNFTRLSTVTRFT"
class = "top"

[[record]]
substance = "LGVAFQRYVCICEVVSLSRG"
class = "top"

[[record]]
substance = "YSCFSECYTKMSHTLSKNNL"
class = "top"

[[record]]
substance = "QGILCFSIHSSNSMTGNTVF"
class = "middle"

[[record]]
substance = "LKFNAP"
class = "middle"

[[record]]
substance = "CCGMSGLSIGDGKNFMSGWV"
class = "top"

[[record]]
substance = "RCSFSGNYIIILLAVRTYFE"
class = "top"

[[record]]
substance = "VNVPHKTWIPDGDLRYYLTL"
class = "bottom"

[[record]]
substance = "LRRLRTSYMLRAVLKLFLQP"
class = "top"

[[record]]
substance = "KYDRNFNTRWGTKDVWTLAD"
class = "middle"

[[record]]
substance = "PLKFTSSMSG"
class = "bottom"

[[record]]
substance = "FGYVDPRQCDISEHLPLSTV"
class = "bottom"

[[record]]
substance = "FYKLVSLREIGMIQVIRGLD"
class = "bottom"

[[record]]
substance = "NYCYSFIKYPLEPVKFLSAV"
class = "bottom"

[[record]]
substance = "IARFHTDSYHYRY"
class = "middle"

[[record]]
substance = "VMFPGKQHT"
class = "middle"

[[record]]
substance = "VGTLSRLSFYVVDAVSAQRG"
class = "top"

[[record]]
substance = "GQLLCWVASNYEGFNWVYKI"
class = "middle"

[[record]]
substance = "LYHSVSSVEDLQSDACTSCM"
class = "top"

[[record]]
substance = "IHYIPAFYRAKSILLFVYAC"
class = "bottom"

[[record]]
substance = "MGDVFILFLLAGFLEDHNGY"
class = "bottom"

[[record]]
substance = "EPSGLLFSTLGTSTYGYIQF"
class = "top"

[[record]]
substance = "FSCGCIRYFSG"
class = "middle"

[[record]]
substance = "YWHDVI"
class = "middle"

[[record]]
substance = "RCVMRAHFSTWLHKVSTSVW"
class = "top"

[[record]]
substance = "RRMKFDMSNGRQGSLVNHGR"
class = "middle"

[[record]]
substance = "WRTARFSGKF"
class = "middle"

[[record]]
substance = "DFYNETVTFFTHKIVINNWT"
class = "top"

[[record]]
substance = "HFAPLFDYNLTGIKTLKTAD"
class = "middle"

[[record]]
substance = "FSVLVPMYK"
class = "bottom"

[[record]]
substance = "LFNWVTSCSGTINGWKIKRH"
class = "top"

[[record]]
substance = "IGILMVACRLHNVSLYLCSG"
class = "bottom"

[[record]]
substance = "CRASFACERDNIS"
class = "top"

[[record]]
substance = "YVIFCTPSFFIL"
class = "top"

[[record]]
substance = "RFTNIFAKNRLCRLDMRRNT"
class = "bottom"

[[record]]
substance = "SCFTTF"
class = "bottom"

[[record]]
substance = "VLKRLRTYVYSIFW"
class = "top"

[[record]]
substance = "QMYYFRCGQFTQGGNTQWLW"
class = "top"

[[record]]
substance = "RRFEWFAGHCGIVDLPLGVG"
class = "top"

[[record]]
substance = "DKHSLKILYKCGHPSTDNGQ"
class = "top"

[[record]]
substance = "RGFQTKSKGLARRSMYKCWE"
class = "bottom"

[[record]]
substance = "MITARSLSPRIFRAESAYSE"
class = "middle"

[[record]]
substance = "GLSGTSALPPGIS"
class = "middle"

[[record]]
substance = "DHHQGMM"
class = "bottom"

